test summary: log P by HPLC on reversed-phase column (C 18), EEC Directive 79/831 Annex V.A8
Type: physicochemical
study conditions: Table 1, compounds of formula (I); HPLC C 18, 40° C., 0.1% aqueous formic acid and acetonitrile, gradient 10% to 90% acetonitrile
test readout: logP
Kindly provide the number alone.

Previously resolved entries follow.
What measured logP goes with `C[Si](C)(c1ccc(-c2ccccc2)cc1)c1ccccc1CN(C(=O)c1ccsc1I)C1CC1` ?
6.39

What value of logP has been recorded for this entry: `COc1ccc([Si](C)(C)c2ccccc2CN(C(=O)c2c(C(F)F)nn(C)c2Cl)C2CC2)cn1`
4.25

***
Endpoint output: logP of `Cc1nc(C(F)F)c(C(=O)N(Cc2ccccc2[Si](C)(C)c2ccc(Oc3ccccc3)cc2)C2CC2)s1` . Value?
5.81

Name the recorded logP for `Cn1cc(C(=O)N(Cc2ccccc2[Si](C)(C)c2cccs2)C2CC2)c(C(F)F)n1` .
4.24

I'd like to know its logP. The compound in question is `Cc1cc(C(=O)N(Cc2ccccc2[Si](C)(C)c2cccs2)C2CC2)c(C)o1`
5.19

For `Cc1cc(C(=O)N(Cc2ccccc2[Si](C)(C)c2ccc(Cl)cc2)C2CC2)c(C)o1` , what is its reported logP?
5.78

Which value of logP has been reported for `Cn1nc(C(F)F)c(C(=O)N(Cc2ccccc2[Si](C)(C)c2ccccc2)C2CC2)c1F` in the records?
4.78

# input compound: `COc1ccc([Si](C)(C)c2ccccc2CN(C(=O)c2c(C(F)F)nn(C)c2F)C2CC2)cn1` ; wanted: its logP
4.13

FYI, the data here is from patent US20150080337A1.
